# Tested on: Acinetobacter baumannii strains
# test_name: Antibiotic susceptibility test (CLSI disk diffusion test method, read per CLSI 2016); also: key: ‘S’ means susceptible; ‘I’ means intermediate; ‘R’ means resistant
# Assay type: cell-based
# test_context: host strain YMC14/08/R1169
parameter_measured: antibiotic susceptibility S/I/R

C[C@@H](O)[C@H]1C(=O)N2C(C(=O)O)=C(SCCN=CN)C[C@H]12 R
CC(C)(O/N=C(\C(=O)N[C@@H]1C(=O)N2C(C(=O)[O-])=C(C[n+]3ccccc3)CS[C@H]12)c1csc(N)n1)C(=O)O R
CN(C)c1cc(NC(=O)CNC(C)(C)C)c(O)c2c1C[C@H]1C[C@H]3[C@H](N(C)C)C(O)=C(C(N)=O)C(=O)[C@@]3(O)C(O)=C1C2=O R

---

# Test system: Acinetobacter baumannii strains
# test_name: Antibiotic susceptibility test (CLSI disk diffusion test method, read per CLSI 2016); also: key: ‘S’ means susceptible; ‘I’ means intermediate; ‘R’ means resistant
# Format: cell-based
# test_context: host strain YMC14/02/R3106
parameter_measured: antibiotic susceptibility class

In the examples that follow, each entry is paired with its recorded antibiotic susceptibility class.
compound	antibiotic susceptibility class
C[C@@H](O)[C@H]1C(=O)N2C(C(=O)O)=C(SCCN=CN)C[C@H]12 [Imipenem, imipenem]	R
CO/N=C(\C(=O)N[C@@H]1C(=O)N2C(C(=O)O)=C(COC(C)=O)CS[C@H]12)c1csc(N)n1 [Cefotaxime, cefotaxime]	R
C[C@H]1COc2c(N3CCN(C)CC3)c(F)cc3c(=O)c(C(=O)O)cn1c23 [Levofloxacin, levofloxacin]	R
CC(C)(O/N=C(\C(=O)N[C@@H]1C(=O)N2C(C(=O)[O-])=C(C[n+]3ccccc3)CS[C@H]12)c1csc(N)n1)C(=O)O [Ceftazidime, ceftazidime]	R
CCN1CCN(C(=O)N[C@@H](C(=O)N[C@@H]2C(=O)N3[C@@H]2SC(C)(C)[C@@H]3C(=O)O)c2ccccc2)C(=O)C1=O [Piperacillin, piperacillin]	R

Kindly review the next compound as well.
# input Quick one: antibiotic susceptibility class of CN(C)c1ccc(O)c2c1C[C@H]1C[C@H]3[C@H](N(C)C)C(O)=C(C(N)=O)C(=O)[C@@]3(O)C(O)=C1C2=O [Minocycline, minocycline] ?
# output S

---

# Test system: Acinetobacter baumannii strains
# test_name: Antibiotic susceptibility test (CLSI disk diffusion test method, read per CLSI 2016); also: key: ‘S’ means susceptible; ‘I’ means intermediate; ‘R’ means resistant
# Assay type: cell-based
# test_context: host strain YMC14/01/R130
parameter_measured: antibiotic susceptibility class

In the examples that follow, each entry is paired with its recorded antibiotic susceptibility class.
CN(C)c1cc(NC(=O)CNC(C)(C)C)c(O)c2c1C[C@H]1C[C@H]3[C@H](N(C)C)C(O)=C(C(N)=O)C(=O)[C@@]3(O)C(O)=C1C2=O S
C[C@H]1COc2c(N3CCN(C)CC3)c(F)cc3c(=O)c(C(=O)O)cn1c23 R
CO/N=C(\C(=O)N[C@@H]1C(=O)N2C(C(=O)O)=C(COC(C)=O)CS[C@H]12)c1csc(N)n1 R
CC(C)(O/N=C(\C(=O)N[C@@H]1C(=O)N2C(C(=O)[O-])=C(C[n+]3ccccc3)CS[C@H]12)c1csc(N)n1)C(=O)O R
CN(C)c1ccc(O)c2c1C[C@H]1C[C@H]3[C@H](N(C)C)C(O)=C(C(N)=O)C(=O)[C@@]3(O)C(O)=C1C2=O S

For every listed record, write down its antibiotic susceptibility class.
1. C[C@@H](O)[C@H]1C(=O)N2C(C(=O)O)=C(SCCN=CN)C[C@H]12
2. NCC[C@H](O)C(=O)N[C@@H]1C[C@H](N)[C@@H](O[C@H]2O[C@H](CN)[C@@H](O)[C@H](O)[C@H]2O)[C@H](O)[C@H]1O[C@H]1O[C@H](CO)[C@@H](O)[C@H](N)[C@H]1O
3. CCN1CCN(C(=O)N[C@@H](C(=O)N[C@@H]2C(=O)N3[C@@H]2SC(C)(C)[C@@H]3C(=O)O)c2ccccc2)C(=O)C1=O
4. C[C@@H](O)[C@H]1C(=O)N2C(C(=O)O)=C(S[C@@H]3CN[C@H](C(=O)N(C)C)C3)[C@H](C)[C@H]12

# output
1. R
2. R
3. R
4. R
